Here, each record is paired with measured melting point data.
observable: melting point

| chemical-string | observable | obs-value |
| --- | --- | --- |
| COc1ccc(C(=O)Nc2ccc(C(C)(C)C(N)=O)cc2)cc1OC | melting point | 193 to 195 °C |
| FC(F)(F)c1cccc(Oc2ccnc(-c3ccc(Cl)cc3)n2)c1 | melting point | 92 °C |
| COC(=O)c1ccc2c(c1C(=O)OC)OCO2 | melting point | 57 to 59 °C |
| COC(=O)c1ccc2ncc(C(=O)c3ccc(N4C[C@H](CNC(C)=O)OC4=O)cc3)n2c1 | melting point | 231 to 233 °C |
| S=C(CCC(c1ccccc1)(c1ccccc1)c1ccccc1)Oc1c(Cl)c(Cl)c(Cl)c(Cl)c1Cl | melting point | 154 to 156 °C |
| CC(C)(O)c1ccc(-c2cnc3[nH]c(=O)n(CCC4CCOCC4)c3n2)cn1 | melting point | 132 to 133 °C |
